Test: recombinant barcode read abundance after kanamycin selection (control-corrected) (log10(CPM+1)); higher = more efficient recombination; sequences stand for … in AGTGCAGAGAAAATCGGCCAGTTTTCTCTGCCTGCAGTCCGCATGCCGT…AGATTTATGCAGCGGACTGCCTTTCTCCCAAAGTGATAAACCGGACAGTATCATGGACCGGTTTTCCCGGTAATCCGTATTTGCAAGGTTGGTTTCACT; site = the 11-nt target;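 further: IS621 recombinase and bridge RNA in Escherichia coli cells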
METRIC_NAME: recombinant barcode read abundance (log10)
Reply: number alone, nothing else.

In: recombinant barcode read abundance (log10) for CACTTACCTTGGGTTCTAACCTGTTGCCT (site CACTTACCTAG) ?
Out: 0.742

In: Sample CAAACACCTTGGGTTCTAACCTGTTGCCT (site CAAACACCTAG) — what was its recombinant barcode read abundance (log10)?
Out: 1.46

In: Can you look up the measured recombinant barcode read abundance (log10) of AGTCATACTTGGGTTCTAACCTGTTGCAT (site AGTCATACTAT) for me?
Out: 0.356

In: I have this sequence here, CTCGTGACTTGGGTTCTAACCTGTTGCCT (site CTCGTCACTAG) , and I need its recorded recombinant barcode read abundance (log10).
Out: 0

In: I have this sequence here, CGAGGGTCTTGGGTTCTAACCTGTTGCTT (site CGAGGGTCTAA) , and I need its recorded recombinant barcode read abundance (log10).
Out: 1.82

In: Entry TTAACTACTTGGGTTCTAACCTGTTGCTA (site TTAACTACTAA) : reported recombinant barcode read abundance (log10) = ?
Out: 0

In: Look up recombinant barcode read abundance (log10) for this sequence: TACTTCCCTTGGGTTCTAACCTGTTGCGT (site TACTTCCCTAC)
Out: 1.87

In: Tell me the measured recombinant barcode read abundance (log10) of GTTGGGACTTGGGTTCTAACCTGTTGCCT (site GTTGGAACTAC) , please.
Out: 0.109

In: Reported recombinant barcode read abundance (log10) for CATCATTCTTGGGTTCTAACCTGTTGCCT (site CATCATTCTAG) : what is it?
Out: 0.215

In: recombinant barcode read abundance (log10) for CCGAATGCTTGGGTTCTAACCTGTTGCCT (site CCGAATGCTAG) ?
Out: 0.188

In: Reported recombinant barcode read abundance (log10), sequence GAAGCCGCTTGGGTTCTAACCTGTTGCCT (site GAAGACGCTAG) : ____
Out: 0.0292

In: Suppose we examine the sequence GGAGGTACTTGGGTTCTAACCTGTTGCCT (site GGAGGAACTAG) ; what recombinant barcode read abundance (log10) value has been reported?
Out: 0.0658

In: Would you mind telling me what recombinant barcode read abundance (log10) value was observed for CAGGTGCCTTGGGTTCTAACCTGTTGCCT (site CTGGTGCCTAG) ?
Out: 0.526

In: Fill in the blank: the reported recombinant barcode read abundance (log10) of TCCTAACCTTGGGTTCTAACCTGTTGCTG (site ACCTAACCTCT) is ____.
Out: 0.0586

In: Quick one: recombinant barcode read abundance (log10) for ACCGCTACTTGGGTTCTAACCTGTTGCCT (site ACCGCTACTAG) ?
Out: 0.176

In: // recombinant barcode read abundance (log10) lookup, key: CTGTAGGCTTGGGTTCTAACCTGTTGCTA (site CTGTAGGCTTA)
Out: 0.716

In: Any idea what its recombinant barcode read abundance (log10) is? The sequence is CGAGCAGCTTGGGTTCTAACCTGTTGCCT (site CGGGCAGCTAG)
Out: 0.519

In: // lookup recombinant barcode read abundance (log10) for ACTTGACCTTGGGTTCTAACCTGTTGCAG (site ACTTGACCTCT)
Out: 1.83

In: Data request, read-out recombinant barcode read abundance (log10), for TCCGTATCTTGGGTTCTAACCTGTTGCAG (site GAGTGGCCTTC)
Out: 0.16

In: Using the record for GAAGGGACTTGGGTTCTAACCTGTTGCCT (site GGAGGGACTAG) , report its recombinant barcode read abundance (log10).
Out: 0.585

In: Which recombinant barcode read abundance (log10) value belongs to TGTGCCTCTTGGGTTCTAACCTGTTGCCT (site TGTACCTCTAG) ?
Out: 0.368

In: // lookup recombinant barcode read abundance (log10) for TCTTGGTCTTGGGTTCTAACCTGTTGCTA (site TTATGGTCTTA)
Out: 0.208

In: Endpoint output: recombinant barcode read abundance (log10) of TCATGACCTTGGGTTCTAACCTGTTGCAT (site CTTAACACTCG) . Value?
Out: 0.159

In: Any idea what recombinant barcode read abundance (log10) was measured for CAGTATTCTTGGGTTCTAACCTGTTGCCT (site CAGTAGTCTAG) ?
Out: 0.0496

In: Consider the sequence shown here: CTGATTACTTGGGTTCTAACCTGTTGCCT (site CTGATCACTAG) What is its recorded recombinant barcode read abundance (log10)?
Out: 0.0584

In: Requested field: recombinant barcode read abundance (log10). Item: GGTTACCCTTGGGTTCTAACCTGTTGCGG (site GGTGACCCTCC)
Out: 0.115

In: Entry GGGCAGTCTTGGGTTCTAACCTGTTGCCG (site GGGGCGTCTCG) : reported recombinant barcode read abundance (log10) = ?
Out: 0.14

In: So what's the measured recombinant barcode read abundance (log10) for this one? GAGAGAACTTGGGTTCTAACCTGTTGCCT (site CCATAGGCTCA)
Out: 0.0856

In: Return reported recombinant barcode read abundance (log10); argument: TAGTCCGCTTGGGTTCTAACCTGTTGCCG (site TAGTCCGCTCG)
Out: 0.446

In: Query: recombinant barcode read abundance (log10); subject: TCCGTGACTTGGGTTCTAACCTGTTGCCT (site TCCGTGGCTAG)
Out: 0.436

In: Which recombinant barcode read abundance (log10) is reported for this sequence? GCTCTAGCTTGGGTTCTAACCTGTTGCTA (site ACTCTAGCTGA)
Out: 0.143

In: Can you share its recombinant barcode read abundance (log10)? I mean this sequence: GATCAACCTTGGGTTCTAACCTGTTGCCT (site GATCAACCTAG)
Out: 1.62

In: For AGTCTCTCTTGGGTTCTAACCTGTTGCCG (site AGTCTCTCTCG) , what is its reported recombinant barcode read abundance (log10)?
Out: 0.357

In: Could you tell me which recombinant barcode read abundance (log10) is on file for TCGTGCCCTTGGGTTCTAACCTGTTGCCT (site TCGTGCCCTAG) ?
Out: 0.398

In: // lookup recombinant barcode read abundance (log10) for TGAGATGCTTGGGTTCTAACCTGTTGCCT (site TGAGATGCTAG)
Out: 1.72

In: Quick one: recombinant barcode read abundance (log10) for CTGGGGTCTTGGGTTCTAACCTGTTGCTT (site GACTAAGCTCC) ?
Out: 0.105

In: Recorded recombinant barcode read abundance (log10) of GGCTGTTCTTGGGTTCTAACCTGTTGCCT (site GCCTGTTCTAG) , please.
Out: 0.425

In: Request the reported recombinant barcode read abundance (log10) associated with CTGGTGCCTTGGGTTCTAACCTGTTGCCT (site CGGGTGCCTAG)
Out: 0.248

In: Can you look up the measured recombinant barcode read abundance (log10) of TCTGCGACTTGGGTTCTAACCTGTTGCCT (site TCCGCGACTAG) for me?
Out: 0.455

In: Entry GTACGTCCTTGGGTTCTAACCTGTTGCGT (site GTACGTCCTAA) : reported recombinant barcode read abundance (log10) = ?
Out: 0.0527

In: Can you look up the measured recombinant barcode read abundance (log10) of CACACAGCTTGGGTTCTAACCTGTTGCCT (site CACAAAGCTAG) for me?
Out: 0.082

In: Record request: recombinant barcode read abundance (log10) value, item GACATCCCTTGGGTTCTAACCTGTTGCCT (site GACATCGCTAG)
Out: 0.0465
